// reported POD vs vehicle per item
# System: 30171 (donor line of iPSC-derived cardiomyocytes)
# Experiment Summary: POD (EC10) for decrease in total cell number (cytotoxicity) vs vehicle; higher = less potent (higher point of departure)
# Reported Conditions: exposure time: 90 min
Readout: POD vs vehicle

O=S(=O)(O)C(F)(F)C(F)(F)C(F)(F)C(F)(F)C(F)(F)C(F)(F)F [Perfluorohexanesulfonic_acid]: > 100 µM
NC(=O)C(F)(F)C(F)(F)C(F)(F)C(F)F: 0.93 µM
OCC(O)CC(F)(F)C(F)(F)C(F)(F)C(F)(F)C(F)(F)C(F)(F)C(F)(F)C(F)(F)F (stereo unspecified) [1-(Perfluorofluorooctyl)propane-2,3-diol]: > 100 µM
O=C(O)C(F)(F)OC(F)(F)C(F)(F)OC(F)(F)C(F)(F)OC(F)(F)C(F)(F)C(F)(F)C(F)(F)F [Perfluoro-3,6,9-trioxatridecanoic_acid]: 59.5 µM
O=C(O)C(F)(F)C(F)(F)C(F)F [2,2,3,3,4,4-Hexafluorobutanoic_acid]: 0.125 µM
NS(=O)(=O)C(F)(F)C(F)(F)C(F)(F)C(F)(F)C(F)(F)C(F)(F)F [Perfluorohexanesulfonamide]: > 100 µM
O=C(O)C(F)(F)C(F)(F)C(F)(F)C(F)(F)C(=O)O [Octafluoroadipic_acid]: > 100 µM
O=S(=O)(O)CCC(F)(F)C(F)(F)C(F)(F)C(F)(F)C(F)(F)C(F)(F)C(F)(F)C(F)(F)F [8:2 Fluorotelomer sulfonic acid]: > 100 µM
O=C(O)C(F)(F)C(F)(F)C(F)(F)C(F)(F)C(F)(F)C(F)(F)C(F)(F)C(F)(F)F [Perfluorononanoic_acid]: > 100 µM
O=C(O)C(F)(F)C(F)(F)OC(F)(F)F [Perfluoro-3-methoxypropanoic_acid]: > 100 µM
NC(=O)C(F)(F)C(F)(F)C(F)(F)C(F)(F)C(N)=O [Octafluoroadipamide]: > 100 µM
CN(CCO)S(=O)(=O)C(F)(F)C(F)(F)C(F)(F)C(F)(F)C(F)(F)C(F)(F)C(F)(F)C(F)(F)F [N-Methyl-N-(2-hydroxyethyl)perfluorooctanesulfonamide]: > 100 µM
NC(=O)C(F)(F)C(F)(F)C(F)(F)F [Heptafluorobutyramide]: > 100 µM
O=S(=O)(O)CCC(F)(F)C(F)(F)C(F)(F)C(F)(F)C(F)(F)C(F)(F)F [6:2 Fluorotelomer sulfonic acid]: > 100 µM
CC(O)C(F)(F)C(F)(F)F (stereo unspecified) [1-Pentafluoroethylethanol]: > 100 µM
OCC(F)(F)C(F)(F)C(F)(F)CO [Hexafluoroamylene_glycol]: > 100 µM

###

# System: 30171
# Experiment Summary: POD (EC10) for decrease in total cell number (cytotoxicity) vs vehicle; higher = less potent (higher point of departure)
# Reported Conditions: exposure time: 90 min
Readout: POD vs vehicle

O=C(O)C=C(C(F)(F)F)C(F)(F)F: > 100 µM
O=C(O)C(F)(F)OC(F)(F)C(F)(F)OC(F)(F)F: > 100 µM
OCC(F)(F)C(F)(F)C(F)(F)C(F)F: > 100 µM
O=C(O)C(F)(F)C(F)(F)C(F)(F)C(F)(F)F: > 100 µM
O=C(O)C=CC(F)(C(F)(F)F)C(F)(F)F: > 100 µM
O=C(O)C(F)(F)C(F)(F)C(F)(F)C(F)(F)C(F)(F)C(F)(F)C(F)(F)C(F)(F)C(F)(F)C(F)(F)F: > 100 µM
OCCC(F)(F)C(F)(F)C(F)(F)C(F)(F)C(F)(F)C(F)(F)F: > 100 µM
O=S(=O)(O)CCC(F)(F)C(F)(F)C(F)(F)C(F)(F)F: > 100 µM
NC(=O)C(F)(F)C(F)(F)C(F)(F)C(F)(F)F [Nonafluoropentanamide]: > 100 µM

###

# Tested on: 1518 (donor line of iPSC-derived cardiomyocytes)
# Experiment Summary: POD (EC05) for increase in Ca2+ transient decay-to-rise ratio (QT prolongation) vs vehicle; higher = less potent (higher point of departure)
# Reported Conditions: exposure time: 90 min
Readout: POD vs vehicle

O=C(O)C(F)(F)C(F)(F)C(F)(F)C(F)(F)C(F)(F)C(F)(F)C(F)(F)C(F)(F)C(F)(F)C(F)(F)F: 17.4 µM
NC(=O)C(F)(F)C(F)(F)C(F)(F)C(F)F: 0.19 µM
O=P(O)(O)CCC(F)(F)C(F)(F)C(F)(F)C(F)(F)C(F)(F)C(F)(F)C(F)(F)C(F)(F)F: > 100 µM
O=C(O)C(F)(F)C(F)(F)C(F)(F)C(F)(F)C(=O)O: > 100 µM
O=C(O)C(F)(F)C(F)(F)C(F)(F)C(F)(F)C(F)(F)C(F)(F)C(F)(F)F: > 100 µM
OCC(F)(F)C(F)(F)C(F)(F)C(F)(F)C(F)(F)C(F)F: > 100 µM
O=C(O)CCC(F)(F)C(F)(F)C(F)(F)C(F)(F)C(F)(F)C(F)(F)C(F)(F)F: > 100 µM

###

# System: 1309 (donor line of iPSC-derived cardiomyocytes)
# Experiment Summary: POD (EC05) for increase in Ca2+ transient decay-to-rise ratio (QT prolongation) vs vehicle; higher = less potent (higher point of departure)
# Reported Conditions: exposure time: 90 min
// reported POD vs vehicle per item
Readout: POD vs vehicle

O=C(O)C(F)(F)C(F)(F)C(F)(F)C(F)(F)C(F)(F)C(F)(F)F: > 100 µM
O=C(O)C(F)(F)C(F)(F)C(F)(F)C(F)(F)C(F)(F)C(F)(F)C(F)(F)C(F)(F)C(F)(F)F: > 100 µM
O=S(=O)(O)C(F)(F)C(F)(F)C(F)(F)C(F)(F)F: > 100 µM
O=C(O)CCC(F)(F)C(F)(F)C(F)(F)C(F)(F)C(F)(F)C(F)(F)C(F)(F)F: > 100 µM
NC(=O)C(F)(F)C(F)(F)C(F)(F)C(F)(F)F [Nonafluoropentanamide]: > 100 µM
O=S(=O)(O)CCC(F)(F)C(F)(F)C(F)(F)C(F)(F)F: > 100 µM
O=C(O)CCC(F)(F)C(F)(F)C(F)(F)F: > 100 µM

###

// reported POD vs vehicle per item
# System: 20032 (donor line of iPSC-derived cardiomyocytes)
# Experiment Summary: POD (EC05) for decrease in beat frequency (negative chronotrope) vs vehicle; higher = less potent (higher point of departure)
# Reported Conditions: exposure time: 90 min
Readout: POD vs vehicle

OCC(F)(F)OC(F)(F)C(F)(F)OC(F)(F)C(F)(F)OC(F)(F)F [Fluorinated_triethylene_glycol_monomethyl_ether]: > 100 µM
O=C([O-])C(F)(F)C(F)(F)C(F)(F)C(F)(F)C(F)(F)C(F)(F)C(F)(F)F.[NH4+] [Ammonium_perfluorooctanoate]: 79.9 µM
OCCC(F)(F)C(F)(F)C(F)(F)C(F)(F)C(F)(F)C(F)(F)C(F)(F)C(F)(F)F [8:2 Fluorotelomer alcohol]: > 100 µM
NC(=O)C(F)(F)C(F)(F)C(F)(F)C(F)(F)C(F)(F)C(F)(F)C(F)(F)F [Perfluorooctanamide]: > 100 µM
O=C(O)C(F)(F)C(F)(F)C(F)(F)C(F)(F)C(F)(F)F [Perfluorohexanoic_acid]: > 100 µM
OCCC(F)(F)C(F)(F)C(F)(F)C(F)(F)C(F)(F)C(F)(F)F [6:2 Fluorotelomer alcohol]: > 100 µM
O=C(O)C(F)(F)OC(F)(F)C(F)(F)OC(F)(F)C(F)(F)OC(F)(F)C(F)(F)C(F)(F)C(F)(F)F [Perfluoro-3,6,9-trioxatridecanoic_acid]: 42 µM
NC(=O)C(F)(F)C(F)(F)C(F)(F)C(F)(F)C(N)=O [Octafluoroadipamide]: > 100 µM
OCC(F)(F)C(F)(F)C(F)(F)C(F)(F)C(F)(F)C(F)F [Dodecafluoroheptanol]: 18.3 µM
O=C(O)C(F)(F)C(F)(F)C(F)(F)C(F)(F)C(=O)O [Octafluoroadipic_acid]: > 100 µM
NC(=O)C(F)(F)C(F)(F)C(F)(F)F [Heptafluorobutyramide]: > 100 µM
O=C(O)CCC(F)(F)C(F)(F)C(F)(F)F [3:3 Fluorotelomer carboxylic acid]: > 100 µM
O=S(=O)([O-])C(F)(F)C(F)(F)C(F)(F)C(F)(F)F.[K+] [Potassium_perfluorobutanesulfonate]: > 100 µM
NC(=O)C(F)(F)C(F)(F)C(F)(F)C(F)(F)F [Nonafluoropentanamide]: > 100 µM
O=C(O)C=C(C(F)(F)F)C(F)(F)F [3,3-Bis(trifluoromethyl)-2-propenoic_acid]: > 100 µM

###

// reported POD vs vehicle per item
# System: 1535 (donor line of iPSC-derived cardiomyocytes)
# Experiment Summary: POD (EC05) for decrease in beat frequency (negative chronotrope) vs vehicle; higher = less potent (higher point of departure)
# Reported Conditions: exposure time: 90 min
Readout: POD vs vehicle

NC(=O)C(F)(F)C(F)(F)C(F)(F)F [Heptafluorobutyramide]: > 100 µM
O=S(=O)(O)CCC(F)(F)C(F)(F)C(F)(F)C(F)(F)C(F)(F)C(F)(F)F [6:2 Fluorotelomer sulfonic acid]: > 100 µM
NS(=O)(=O)C(F)(F)C(F)(F)C(F)(F)C(F)(F)C(F)(F)C(F)(F)F [Perfluorohexanesulfonamide]: 12.6 µM
O=S(=O)(O)CCC(F)(F)C(F)(F)C(F)(F)C(F)(F)F [4:2 Fluorotelomer sulfonic acid]: > 100 µM

Hey, just so you know, these numbers are from the supplement of paper PMC11368000.
